// reported protein stability index for each item listed
B1: PLD5 (parent)
chain: KRTYWPDLDAKIREALVLRSVRVR

Variants of: B1
Test description: protein stability index of a GFP-peptide fusion (GPS, HEK-293T) (PSI 1-6); higher = more stable;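 also: lentivirally expressed fusions sorted by FACS into six bins by GFP to DsRed ratio, PSI derived from sequencing read proportions per bin multiplied by bin number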
Condition: c terminus: a fixed tail appended
Recorded metric: protein stability index

1) KRTYWPDLDAKIREALVLRSVRVA
1.53
2) KRTYWPDEDAKIREALVLRSVRVR
2.94
3) KRTYWPDLDAKIREALVKRSVRVR
2.64
4) KRTYWPDLDAKTREALVLRSVRVR
2.7
5) KRTHWPDLDAKIREALVLRSVRVR
2.25
6) KRTYWPDLDAKIREALVLRKVRVR
1.48
7) KRTYWPDLDAKAREALVLRSVRVR
2.01
8) KRTYWPDRDAKIREALVLRSVRVR
3.06
9) KRTYWPDLDAKIPEALVLRSVRVR
1.79
10) KRTYWPDLDAKIREALVLRSVPVR
1.65
11) KRTYWPDLDAKIREALVLRSRRVR
2.4
12) KRTYWPDLDAKIREALLLRSVRVR
1.91
13) KRTYHPDLDAKIREALVLRSVRVR
2.9
14) KRTYWPDFDAKIREALVLRSVRVR
2
15) KRTYWPDLEAKIREALVLRSVRVR
2.54
16) KRTYWPDLDAKIREALVSRSVRVR
1.88
17) KRTYWPDLDAKIREALILRSVRVR
1.11
18) KRTYWPDLDAKIREALVLRSVRCR
1.61
19) KRTYWPDLDAKIREALVLRSVRMR
3.02
20) KRTYWPDLDAKIREALVLRSVTVR
1.59
21) LRTYWPDLDAKIREALVLRSVRVR
1.6
22) KRTYWPDLDAKIREALVLRSVRPR
3.22
23) KRTYWPDLDAKIREALVLTSVRVR
2.53
24) KRTYWPDNDAKIREALVLRSVRVR
1.73
25) KRTYWPDLDAKIREKLVLRSVRVR
1.9
26) KRTYWPDLDAKIREALVLRSVKVR
1.99
27) KRTYWPDLDAKIREALTLRSVRVR
1.57
28) KRTYWPDLDAKIREALVLRSVRQR
2.12
29) KRTYWPDLDAKIREAPVLRSVRVR
2.02
30) KRTYWPDPDAKIREALVLRSVRVR
1.82
31) KRTYWPDLDAHIREALVLRSVRVR
1.29
32) KRTYWPDLDAKIREALVLRTVRVR
1.96
33) KRTYWPDLDFKIREALVLRSVRVR
1.52
34) KRTYWPDLDARIREALVLRSVRVR
1.47
35) KRTYWPDQDAKIREALVLRSVRVR
1.88
36) KRTYWPDLDAKIREALVLSSVRVR
1.8
37) KRWYWPDLDAKIREALVLRSVRVR
1.12
38) KRTYWGDLDAKIREALVLRSVRVR
1.82
39) KRTYWPDLDAKIREALVLRSVRKR
1.99
40) KRTYWPDLDADIREALVLRSVRVR
2.29
41) KRTYWPDLDAKEREALVLRSVRVR
2.76
42) KWTYWPDLDAKIREALVLRSVRVR
1.32
43) KRTYWPDLDAKIREALVLCSVRVR
2.36
44) KRTYWPDLDAKIREALVMRSVRVR
1.51
45) KRTYWPDLDAKIREALVLRSTRVR
1.91
46) KRTYWPDLDAKIREALVLRSMRVR
2.51
47) KRTYWPDLDAKIREALVLRSVRTR
1.88
48) HRTYWPDLDAKIREALVLRSVRVR
2.25
49) KRTYWPDLDAKIREALVLRSVRVY
2.74
50) KRTYWPDLDPKIREALVLRSVRVR
2.36
51) KNTYWPDLDAKIREALVLRSVRVR
2.14
52) KRTYWPDLDAKIREAIVLRSVRVR
1.95
53) KRTYWPDLDAKIRENLVLRSVRVR
1.51
54) KRTYWPDLDAKIRAALVLRSVRVR
1.09
55) KRTYWPDLDAKIREALVLESVRVR
1.69
56) KRTYWPDLDAKIGEALVLRSVRVR
1.89
57) KRTYWPDLDAKIREALVLRSERVR
2.24
58) KRTYWPDLDAKFREALVLRSVRVR
1.93
59) KRTYWPDLDAKIREALVLRSVRER
1.64
60) KRTYWPDLDAKIREALVYRSVRVR
2.09
61) KRTYWPYLDAKIREALVLRSVRVR
1.37
62) KRTYWPDLDAKIREALVLYSVRVR
2.67
63) KRTYWHDLDAKIREALVLRSVRVR
1.96
64) KRTYWPDLDAKKREALVLRSVRVR
2.41
65) KREYWPDLDAKIREALVLRSVRVR
1.28
66) KRTYWPDLDAKIREALVLRSVRVQ
3.34
67) KRTYWPDLDAKIREALVLRSVRDR
2.35
68) KHTYWPDLDAKIREALVLRSVRVR
1.54
69) KRTYWPDLDAKDREALVLRSVRVR
1.43
70) KRTYWPDLDAKIREALVLRSGRVR
2.4
71) KRTYWPDADAKIREALVLRSVRVR
2.18
72) KTTYWPDLDAKIREALVLRSVRVR
2.63
73) KRTKWPDLDAKIREALVLRSVRVR
1.48
74) KRTYWPDLDAEIREALVLRSVRVR
2.17
75) KKTYWPDLDAKIREALVLRSVRVR
2.56
76) KRTYWPDLDAKIREALVLRSSRVR
2.09
77) KMTYWPDLDAKIREALVLRSVRVR
1.77
78) KYTYWPDLDAKIREALVLRSVRVR
1.09
79) KRTYWPDLDAKIREALVLRSVEVR
2.02
80) KRTYRPDLDAKIREALVLRSVRVR
2.1
81) KRTYWPDLDAKIREALVLRSVYVR
1.61
82) KRTYWPDLDAKINEALVLRSVRVR
1.61
83) KRTYWPDLDAKYREALVLRSVRVR
1.29
84) KRTYWPDLDAKICEALVLRSVRVR
2.29
85) SRTYWPDLDAKIREALVLRSVRVR
1.84
